Where do the numbers come from? From patent US12291518B2.

Biological target: THR alpha-LBD (Homo sapiens)
Construct: except that THR alpha-LBD of a final concentration 0.25 nM was used; purchased Invitrogen PV4687
Experiment: THR-α Coactivator Peptide Recruitment Assay (LanthaScreen TR-FRET)
Type: biochemical
Settings: TR-FRET coactivator recruitment, THR alpha-LBD 0.25 nM; read-out: THRα EC50
measured.attribute: EC50

// below: answered molecules
- O=c1[nH]c(=O)n(-c2cc(Cl)c(Oc3cc(S(=O)(=O)NC4CS(=O)(=O)C4)c(O)cn3)c(Cl)c2)nc1C(F)F: 2 to 200 nM
- NS(=O)(=O)c1cc(Oc2c(Cl)cc(-n3nc(C(F)F)c(=O)[nH]c3=O)cc2Cl)ccc1O: 2 to 200 nM
- O=C(NC1CC1)C1(NS(=O)(=O)c2cc(Oc3c(Cl)cc(-n4nc(C(F)F)c(=O)[nH]c4=O)cc3Cl)ccc2O)CCC1: 200 to 1000 nM

Would you kindly look at the next entry?
**Q:** Name the reported EC50 value associated with the molecule `N#CC1(NS(=O)(=O)c2cc(Oc3c(Cl)cc(-n4nc(C(F)F)c(=O)[nH]c4=O)cc3Cl)ccc2O)CC1`
**A:** 2 to 200 nM

----------
Biological target: THR beta-LBD (Homo sapiens, UniProt P10828)
Construct: THR beta-LBD (the final concentration is 0.5 nM) was added to the 384-well assay plate; purchased Invitrogen PV4686
Experiment: THR-β Coactivator Peptide Recruitment Assay (LanthaScreen TR-FRET)
Format: biochemical
Conditions: TR-FRET coactivator recruitment, THR beta-LBD 0.5 nM; read-out: THRβ EC50
measured.attribute: EC50

• O=c1[nH]c(=O)n(-c2cc(Cl)c(Oc3cc(S(=O)(=O)N4CC[C@H](O)C4)c(O)cn3)c(Cl)c2)nc1C(F)F = 0.002 to 0.02 µM
• CS(=O)(=O)Cc1cc(Oc2c(Cl)cc(-n3nc(C(F)F)c(=O)[nH]c3=O)cc2Cl)ncc1O = 0.002 to 0.02 µM
• O=c1[nH]c(=O)n(-c2cc(Cl)c(Oc3cc(S(=O)(=O)NC[C@H]4C[C@H](O)C4)c(O)cn3)c(Cl)c2)nc1C(F)F = 0.02 to 0.1 µM

**Q:** Value lookup for EC50; key = `CNC(=O)CNS(=O)(=O)c1cc(Oc2c(Cl)cc(-n3nc(C(F)F)c(=O)[nH]c3=O)cc2Cl)ccc1O`
**A:** 0.002 to 0.02 µM

**Q:** Name the recorded EC50 for `CS(=O)(=O)CC1(NS(=O)(=O)c2cc(Oc3c(Cl)cc(-n4nc(C(F)F)c(=O)[nH]c4=O)cc3Cl)ccc2O)CC1` .
**A:** 0.002 to 0.02 µM

**Q:** Item under review: `O=C(NC1CCC1)c1cc(Oc2c(Cl)cc(-n3nc(C(F)F)c(=O)[nH]c3=O)cc2Cl)ncc1O` . Reported EC50?
**A:** 0.002 to 0.02 µM

**Q:** What measured EC50 goes with `O=c1[nH]c(=O)n(-c2cc(Cl)c(Oc3cc(S(=O)(=O)N4CC(O)C4)c(O)cn3)c(Cl)c2)nc1C(F)F` ?
**A:** 0.002 to 0.02 µM

----------
Molecular target: THR alpha-LBD (Homo sapiens, UniProt P10827)
Construct: except that THR alpha-LBD of a final concentration 0.25 nM was used; purchased Invitrogen PV4687
Sequence (P10827 163-410 isoform P10827-2 limits assumed, other chains not shown): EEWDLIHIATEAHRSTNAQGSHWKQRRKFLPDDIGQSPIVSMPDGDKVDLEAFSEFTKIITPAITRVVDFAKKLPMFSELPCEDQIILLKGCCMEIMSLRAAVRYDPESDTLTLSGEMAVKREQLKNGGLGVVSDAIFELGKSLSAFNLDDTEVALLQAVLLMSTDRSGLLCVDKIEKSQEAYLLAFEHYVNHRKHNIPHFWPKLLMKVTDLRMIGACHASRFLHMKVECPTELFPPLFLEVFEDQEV
Assay: THR-α Coactivator Peptide Recruitment Assay (LanthaScreen TR-FRET)
Assay type: biochemical
Conditions: TR-FRET coactivator recruitment, THR alpha-LBD 0.25 nM
measured.attribute: THRα Emax

- C[C@@H](CO)NS(=O)(=O)c1cc(Oc2c(Cl)cc(-n3nc(C(F)F)c(=O)[nH]c3=O)cc2Cl)ccc1O: A (85~110)
- C[C@H](CO)NS(=O)(=O)c1cc(Oc2c(Cl)cc(-n3nc(C(F)F)c(=O)[nH]c3=O)cc2Cl)ccc1O: A (85~110)
- O=c1[nH]c(=O)n(-c2cc(Cl)c(Oc3ccc(O)c(S(=O)(=O)N4CCC(F)(F)CC4)c3)c(Cl)c2)nc1C(F)F: A (85~110)
- O=C(NC1CCCC1)C1(NS(=O)(=O)c2cc(Oc3c(Cl)cc(-n4nc(C(F)F)c(=O)[nH]c4=O)cc3Cl)ncc2O)CC1: B (40~85)

# evaluate next
**Q:** Fill in the blank: the reported THRα Emax of `COCC1(NS(=O)(=O)c2cc(Oc3c(Cl)cc(-n4nc(C(F)F)c(=O)[nH]c4=O)cc3Cl)ncc2O)CC1` is ____.
**A:** B (40~85)

----------
Target: THR alpha-LBD (Homo sapiens, UniProt P10827)
Construct: except that THR alpha-LBD of a final concentration 0.25 nM was used; purchased Invitrogen PV4687
Assay: THR-α Coactivator Peptide Recruitment Assay (LanthaScreen TR-FRET)
Type: biochemical
Conditions: TR-FRET coactivator recruitment, THR alpha-LBD 0.25 nM
Protocol: A time-resolved FRET (TR-FRET) assay was used to test representative compounds of the application. THR-β Coactivator Peptide Recruitment Assay were conducted by using Invitrogen's LanthaScreen™ TR-FRET Thyroid Receptor beta Assay Kit (Catalog no. PV4686). […] After a gentle mix and incubation at room temperature for 2 h, the signal was read on the EnVision Multilabel Plate Reader at wavelengths of 520 nm and 495 nm. […]
measured.attribute: THRα Emax

Solved cases (5 shown):
* CNS(=O)(=O)c1cc(Oc2c(Cl)cc(-n3nc(C(F)(F)F)c(=O)[nH]c3=O)cc2Cl)ccc1O | A (85~110)
* CO[C@H]1C[C@@H](NS(=O)(=O)c2cc(Oc3c(Cl)cc(-n4nc(C(F)F)c(=O)[nH]c4=O)cc3Cl)ncc2O)C1 | B (40~85)
* O=C(NC12CC(NS(=O)(=O)c3cc(Oc4c(Cl)cc(-n5nc(C(F)F)c(=O)[nH]c5=O)cc4Cl)ccc3O)(C1)C2)C1CC1 | C (<40)
* NC(=O)C1(NS(=O)(=O)c2cc(Oc3c(Cl)cc(-n4nc(C(F)F)c(=O)[nH]c4=O)cc3Cl)ccc2O)CC1 | A (85~110)
* O=C(CNS(=O)(=O)c1cc(Oc2c(Cl)cc(-n3nc(C(F)F)c(=O)[nH]c3=O)cc2Cl)ncc1O)NC1CCC1 | C (<40)

Field: next compound
**Q:** Could you share which THRα Emax value was measured for `N#CC1(NS(=O)(=O)c2cc(Oc3c(Cl)cc(-n4nc(C(F)F)c(=O)[nH]c4=O)cc3Cl)ccc2O)CC1` ?
**A:** A (85~110)

----------
Molecular target: THR beta-LBD (Homo sapiens)
Construct: THR beta-LBD (the final concentration is 0.5 nM) was added to the 384-well assay plate; purchased Invitrogen PV4686
Sequence (P10828 217-461 limits assumed): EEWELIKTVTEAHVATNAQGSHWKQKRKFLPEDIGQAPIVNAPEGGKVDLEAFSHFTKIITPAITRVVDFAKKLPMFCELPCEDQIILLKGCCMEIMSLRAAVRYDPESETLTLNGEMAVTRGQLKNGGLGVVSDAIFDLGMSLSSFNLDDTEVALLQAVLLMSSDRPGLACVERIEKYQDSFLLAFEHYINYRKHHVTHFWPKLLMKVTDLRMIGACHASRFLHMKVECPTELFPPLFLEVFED
Assay: THR-β Coactivator Peptide Recruitment Assay (LanthaScreen TR-FRET)
Assay type: biochemical
Details: TR-FRET coactivator recruitment, THR beta-LBD 0.5 nM
measured.attribute: THRβ Emax

- O=C(NC1CC(F)(F)C1)c1cc(Oc2c(Cl)cc(-n3nc(C(F)(F)F)c(=O)[nH]c3=O)cc2Cl)ccc1O [Compound 3]: A (90~110)
- O=c1[nH]c(=O)n(-c2cc(Cl)c(Oc3cc(S(=O)(=O)N4CC(F)(F)C4)c(O)cn3)c(Cl)c2)nc1C(F)F [Compound 109]: B (75~90)
- O=c1[nH]c(=O)n(-c2cc(Cl)c(Oc3ccc(O)c(S(=O)(=O)N[C@H]4C[C@@H](O)C4)c3)c(Cl)c2)nc1C(F)F [Compound 42]: A (90~110)
- O=c1[nH]c(=O)n(-c2cc(Cl)c(Oc3ccc(O)c(S(=O)(=O)N[C@@H]4CCN(S(=O)(=O)C5CC5)C4)c3)c(Cl)c2)nc1C(F)F [Compound 48]: C (<75)
- O=C(NC12CC3(F)CC(F)(CC(F)(C3)C1)C2)c1cc(Oc2c(Cl)cc(-n3nc(C(F)F)c(=O)[nH]c3=O)cc2Cl)ccc1O [Compound 6]: B (75~90)
- O=c1[nH]c(=O)n(-c2cc(Cl)c(Oc3cc(S(=O)(=O)NC4CS(=O)(=O)C4)c(O)cn3)c(Cl)c2)nc1C(F)F [Compound 148]: B (75~90)

**Q:** Report THRβ Emax for O=C(C1CC1)N1CCN(S(=O)(=O)c2cc(Oc3c(Cl)cc(-n4nc(C(F)F)c(=O)[nH]c4=O)cc3Cl)ccc2O)CC1 [Compound 32] please.
**A:** C (<75)

**Q:** I'd like to know its THRβ Emax. The compound in question is O=c1[nH]c(=O)n(-c2cc(Cl)c(Oc3ccc(O)c(S(=O)(=O)NC4(CO)CC4)c3)c(Cl)c2)nc1C(F)F [Compound 70]
**A:** B (75~90)
